Every entry's value here was drawn from ChEMBL document CHEMBL4014346.

assay: Half life in Sprague-Dawley rat at 28 mg/kg, po administered as single dose by HPLC-MS/MS analysis; type: ADME, organism-based; conditions: in vivo
assayReadout: half-life (h)
Give your result in h as a bare value.

Entry under review: COc1cncc(Cc2cc(-c3ccccc3)no2)c1 . Reported half-life?
3.3

====

experiment: Cmax in Sprague-Dawley rat at 28 mg/kg, po administered as single dose by HPLC-MS/MS analysis; assay type: ADME, organism-based; parameters: dose 28 mg/kg, route oral; settings: in vivo
assayReadout: Cmax (µM)
Give your result in µM as a bare value.

Entry under review: COc1cncc(Cc2cc(-c3ccccc3)no2)c1 . Reported Cmax?
6.4

====

Each item that follows carries a reported concentration at 1 h.
test: Plasma concentration in Sprague-Dawley rat at 100 mg/kg, po administered as single dose after 1 hr by HPLC-MS/MS analysis; format: ADME, organism-based
Give your result in µM as a bare value.

>  <compoundStructureString>
COc1cncc(Cc2cc(-c3ccccc3)no2)c1

>  <endpointResult>
19.7

$$$$

Shift focus to the following entry.
Entry under review: Cc1cncc(Cc2cc(-c3ccccc3)no2)c1 . Reported concentration at 1 h?
2.5

====

target: CYP1A2 (Homo sapiens, UniProt P05177); assay: Inhibition of recombinant human CYP1A2 expressed in baculovirus infected insect cell microsomes at 1 uM relative to control; assay type: ADME
Sequence (P05177 whole entry): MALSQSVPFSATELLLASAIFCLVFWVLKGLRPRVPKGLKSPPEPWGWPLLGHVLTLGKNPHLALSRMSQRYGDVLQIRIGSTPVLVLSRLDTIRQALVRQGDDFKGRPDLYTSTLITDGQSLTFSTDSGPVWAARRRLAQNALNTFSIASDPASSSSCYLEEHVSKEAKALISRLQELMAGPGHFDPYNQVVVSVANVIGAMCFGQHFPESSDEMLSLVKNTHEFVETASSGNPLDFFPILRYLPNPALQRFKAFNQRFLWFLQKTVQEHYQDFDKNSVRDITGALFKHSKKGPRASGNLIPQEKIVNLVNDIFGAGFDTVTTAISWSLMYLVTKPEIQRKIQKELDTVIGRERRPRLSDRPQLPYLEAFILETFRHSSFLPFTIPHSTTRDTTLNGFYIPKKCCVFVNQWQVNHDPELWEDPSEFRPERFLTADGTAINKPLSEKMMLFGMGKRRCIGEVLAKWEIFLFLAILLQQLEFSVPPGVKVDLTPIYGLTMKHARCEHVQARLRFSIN
Each item that follows carries a reported inhibition at 1 µM.
Give your result in % as a bare value.

>  <compoundStructureString>
COc1cncc(Cc2cc(-c3ccccc3)no2)c1

>  <valueUnits>
%

>  <inhibition at 1 µM>
23

$$$$

Shift focus to the following entry.
Provide value of inhibition at 1 µM for this record tested with CYP1A2 (Homo sapiens, UniProt P05177): Cc1cncc(Cc2cc(-c3ccccc3)no2)c1
54

====

assay: Cytotoxicity against HEK293 cells assessed as reduction in cell viability after 66 hrs by MTT assay; assay type: cell-based; details: human
assayReadout: IC20 at 66 h
Could you kindly put the unit after your number?

>  <compoundStructureString>
Cc1cncc(Cc2cc(-c3ccccc3)no2)c1

>  <IC20 at 66 h>
28 µM

$$$$

Entry under review: COc1cncc(Cc2cc(-c3ccccc3)no2)c1 . Reported IC20 at 66 h?
42 µM

====

Each item that follows carries a reported half-life at 1 µM.
test: Half life in human liver S9 fractions at 1 uM in presence of NADPH/UDPGA by LC-MS/MS analysis; format: ADME

>  <compoundStructureString>
COc1cncc(Cc2cc(-c3ccccc3)no2)c1

>  <half-life at 1 µM>
2.08 h

$$$$

Shift focus to the following entry.
Entry under review: Cc1cncc(Cc2cc(-c3ccccc3)no2)c1 . Reported half-life at 1 µM?
2.42 h

====

target: Cytochrome P450 11B2, mitochondrial (Homo sapiens, UniProt P19099); test: Inhibition of human CYP11B2 expressed in hamster V79MZ cells using [1,2-3H]-11-deoxycorticosterone as substrate after 6 hrs by HPLC analysis
Sequence (P19099 whole entry): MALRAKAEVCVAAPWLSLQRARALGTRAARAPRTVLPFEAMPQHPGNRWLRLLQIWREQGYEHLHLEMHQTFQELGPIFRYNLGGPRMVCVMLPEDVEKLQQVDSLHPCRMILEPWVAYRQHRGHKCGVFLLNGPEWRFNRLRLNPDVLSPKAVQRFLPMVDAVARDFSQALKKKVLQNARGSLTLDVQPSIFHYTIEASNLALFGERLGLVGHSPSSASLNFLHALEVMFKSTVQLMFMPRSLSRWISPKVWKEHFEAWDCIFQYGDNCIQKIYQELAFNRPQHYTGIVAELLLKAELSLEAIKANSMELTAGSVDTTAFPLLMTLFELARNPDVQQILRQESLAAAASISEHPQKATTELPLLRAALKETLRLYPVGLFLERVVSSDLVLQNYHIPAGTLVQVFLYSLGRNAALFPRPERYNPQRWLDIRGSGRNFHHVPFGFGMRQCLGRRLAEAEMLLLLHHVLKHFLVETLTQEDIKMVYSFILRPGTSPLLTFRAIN
assayReadout: pIC50
Scale: negative log10 of molar concentration, which is what pIC50 denotes.

Example cases with answers are listed next.
>  <compoundStructureString>
Cc1cncc(Cc2ccc(N3CCOCC3)nc2)c1

>  <endpointResult>
7.05

$$$$
>  <compoundStructureString>
Cc1cncc(Cc2ccc(Sc3ccccc3F)nc2)c1

>  <endpointResult>
7.62

$$$$

Shift focus to the following entry.
Entry under review: c1ccc(-c2ncc(Cn3ccnc3)[se]2)cc1 . Reported pIC50?
6.18
